The measurements presented in this section are drawn from ChEMBL document CHEMBL1130765.

Item-by-item account of IC50
- Target of assay: Glutamate receptor ionotropic, NMDA 1 (Rattus norvegicus)
- Protocol summary: In vitro binding assay for the displacement of [3H]MDL-105519 from the glycine-site of NMDA receptors

Molecule	Target of assay	Value modifier	IC50, nM
O=C(Cc1ccccc1)NCc1cc(P(=O)(O)O)cc2[nH]c(=O)c(=O)[nH]c12	Glutamate receptor ionotropic, NMDA 1 (Rattus norvegicus)	>	10000
CC(=O)OC(C(=O)NCc1cc(Br)cc2nc(O)c(O)nc12)c1ccccc1 (centres undefined)	Glutamate receptor ionotropic, NMDA 1 (Rattus norvegicus)	=	40
O=C(NCc1cc(Br)cc2[nH]c(=O)c(=O)[nH]c12)c1ccsc1	Glutamate receptor ionotropic, NMDA 1 (Rattus norvegicus)	=	10
Cc1ccc(C(=O)NCc2cc(Br)cc3[nH]c(=O)c(=O)[nH]c23)s1	Glutamate receptor ionotropic, NMDA 1 (Rattus norvegicus)	=	30
